- Tested on: NCI-H522 lung
- assay_procedure: NCI-60 one-dose screen, 48 h (100 = growth as untreated, 0 = no growth, -100 = all killed)
- test_context: 10 µM
About 83,000 compounds went through this panel and 20% of them were active in at least one assay; those are over-represented in the sample as a whole.
growth strictly under -30% means Yes; at -30% or over means No.

Would you please look over these solved cases?
Prompt line: Regarding N#Cc1c(-n2c(Br)c(Br)c3cc(Br)ccc32)[nH]c2c(Br)cc(Br)cc12 , kindly confirm whether its growth is beneath -30%.
Response line: No

Prompt line: Regarding CC1=C[C@H]2O[C@@H]3C[C@@H](O)[C@](C)([C@@]2(C)CC1)[C@@]31CO1 , kindly confirm whether its growth is beneath -30%.
Response line: No

Prompt line: Regarding COC1[C@@H]2C[C@H]3C(C)(C)O[C@@](C/C=C(/C)C(=O)O)(C2=O)[C@]32Oc3c(CC=C(C)C)c4c(c(O)c3C(=O)[C@H]12)C=CC(C)(C)O4 (some centres not stated) , kindly confirm whether its growth is beneath -30%.
Response line: Yes

***
Prompt line: Regarding CC1=C2C(=C[C@@](C)(COC(=O)c3ccc(S(=O)(=O)F)cc3)[C@@H]2O)C(=O)[C@](C)(O)C12CC2 , kindly confirm whether its growth is beneath -30%.
Response line: Yes

Prompt line: Regarding COc1cc2c(O[C@@H]3OC[C@H](OC(C)=O)[C@H](OC(C)=O)[C@H]3O)c3c(c(-c4ccc5c(c4)OCO5)c2cc1OC)C(=O)OC3 , kindly confirm whether its growth is beneath -30%.
Response line: No

Prompt line: Regarding CCC(C)[C@H]1C(=O)O[C@H](C(C)C)C(=O)N(C)[C@@H](C(C)C)C(=O)O[C@H](C(C)C)C(=O)N(C)[C@@H](C(C)C)C(=O)O[C@H](C(C)C)C(=O)N1C (some centres not stated) , kindly confirm whether its growth is beneath -30%.
Response line: No

Prompt line: Regarding CC1=C(CN(O)C(N)=O)C2=C(C)C3(CC3)[C@@](C)(O)C(=O)C2=C1 , kindly confirm whether its growth is beneath -30%.
Response line: No

Prompt line: Regarding CC(C)=CCc1c2c(c(O)c3c1O[C@]14C(=C[C@@H]5C[C@H]1C(C)(C)O[C@@]4(C/C=C(/C)C(=O)O)C5=O)C3=O)C=CC(C)(C)O2 , kindly confirm whether its growth is beneath -30%.
Response line: Yes

Prompt line: Regarding CN1C(=O)[C@]23SSC1(C)C(=O)N2[C@H]1Nc2ccccc2C1([C@@]12c4ccccc4N[C@@H]1N1C(=O)C4(C)SS[C@]1(C(=O)N4C)[C@H]2O)[C@@H]3O (some centres not stated) , kindly confirm whether its growth is beneath -30%.
Response line: Yes

Prompt line: Regarding C/C=C\C(=O)O[C@@H]1CC2O[C@@H]3C=C(C)C(=O)C[C@]3(C)[C@]1(C)[C@]21CO1 , kindly confirm whether its growth is beneath -30%.
Response line: No

Prompt line: Regarding COc1cc2c(cc1OC)[C@@H]1N(CC2)C(=O)c2ccccc2[C@@]1(C)C(=O)O , kindly confirm whether its growth is beneath -30%.
Response line: No

Prompt line: Regarding CC1=C2C(=O)[C@](C)(CO)C=C2C(=O)[C@](C)(O)C12CC2 , kindly confirm whether its growth is beneath -30%.
Response line: Yes

Prompt line: Regarding COc1cc(OC)c(S(=O)(=O)N(CCCl)CCCl)cc1C(=O)/C=C/c1ccc(Cl)cc1 , kindly confirm whether its growth is beneath -30%.
Response line: No

Prompt line: Regarding C=C1[C@@H](C)C2[C@H](Cc3ccccc3)NC(=O)[C@]23[C@H](OC(C)=O)/C=C/[C@@](C)(O)C(=O)[C@@H](C)C/C=C/[C@H]3[C@@H]1O (some centres not stated) , kindly confirm whether its growth is beneath -30%.
Response line: No

Prompt line: Regarding CC1=C2C(=C[C@@](C)(C=O)[C@@H]2O)C(=O)[C@](C)(O)C12CC2 , kindly confirm whether its growth is beneath -30%.
Response line: No

Prompt line: Regarding CC1=C2C(=C[C@@](C)(COC(=O)c3ccc(S(=O)(=O)F)cc3)[C@@H]2OC(=O)c2ccc(S(=O)(=O)F)cc2)C(=O)[C@](C)(O)C12CC2 , kindly confirm whether its growth is beneath -30%.
Response line: Yes

Prompt line: Regarding CC1=C2C(=C[C@@](C)(COS(C)(=O)=O)[C@@H]2O)C(=O)[C@](C)(O)C12CC2 , kindly confirm whether its growth is beneath -30%.
Response line: No

* * *

- Test system: HL-60(TB) leukemia
- assay_procedure: NCI-60 one-dose screen, 48 h (100 = growth as untreated, 0 = no growth, -100 = all killed)
- test_context: 10 µM unless noted
- Description: Growth inhibition of the HL-60(TB) human tumor cell line is measured as a screen for anti-cancer activity. Cells are grown in 96 well plates and exposed to the test compound for 48 hours. Compounds are tested at a single concentration, which is 10^-5 M for most compounds. The reported endpoint is percent growth (GI% or GIPRCNT), where numbers from 0 - 100% represent growth inhibition, and numbers from -100% - 0 represent cell death. For example, a value of 40 represents 60% growth inhibition. […]
The panel holds about 83,000 compounds, 20% with a hit somewhere; the sample as a whole holds those more often.
Each record here notes measured growth.
Answer format: numeric, % implied, no suffix.

Below: 5 compounds and their reported growth.
Record for O=C(NNc1nc2cc(F)ccc2n2c(CN3CCCC3)ccc12)c1cnccn1 under target or system HL-60(TB) leukemia: growth reported as -30.9

Record for CC(=C(c1ccc(OCCN(C)C)cc1)c1ccc(OCCN(C)C)cc1)c1ccc(Cl)cc1 under target or system HL-60(TB) leukemia: growth reported as -53.5

Record for COc1ccc(-c2nc3cc(Cl)c(Cl)cc3n2CC(=O)N=Nc2c(O)[nH]c3ccc(Cl)cc23)cc1 under target or system HL-60(TB) leukemia: growth reported as 59.7

Record for C/C(=N\NC(=S)Nc1ccc(Br)cc1)c1cc2ccccc2oc1=O under target or system HL-60(TB) leukemia: growth reported as 1.53

Record for CC(C)(C)c1cc(NC(=O)Nc2ccc(-c3cn4c5c(sc4n3)CCc3c[nH]cc3-5)cc2)no1 under target or system HL-60(TB) leukemia: growth reported as 9.58

***
Record for CCOC(=O)C1=C(C)NC(C)=C(C(=O)OCc2ccccc2)C1c1cccc(C#N)c1 (stereo unspecified) under target or system HL-60(TB) leukemia: growth reported as 16.1

Record for Cc1nc(-c2cc3ccccc3oc2=O)ccc1C(=O)/C=C/c1ccc(Cl)c(Cl)c1 under target or system HL-60(TB) leukemia: growth reported as 97.9

Record for O=C(CSc1nnc(-c2ccc(Cl)cc2)n1-c1ccccc1)Nc1ccc(F)cc1 under target or system HL-60(TB) leukemia: growth reported as 95.3

Record for CCN1C(=O)N(CC)C2C1NN=C1SC(c3ccccc3)=CC(=O)N12 (stereo unspecified) under target or system HL-60(TB) leukemia: growth reported as -2.48

Record for O=C(CCCCCCN1CC(=O)N2[C@@H](c3cccs3)c3[nH]c4ccccc4c3C[C@H]2C1=O)NO under target or system HL-60(TB) leukemia: growth reported as 100

Record for CS(=O)(=O)Nc1cc(-c2ccc3ncc(C#N)c(NCc4ccccc4F)c3c2)cnc1Cl under target or system HL-60(TB) leukemia: growth reported as 5.25

Record for C(=C(\C1=NCCN1)n1cnc2ccccc21)/c1cccc2ccccc12 under target or system HL-60(TB) leukemia: growth reported as 71.6

Record for Cc1cc(C)n(C(=O)c2sc(=S)n(-c3ccccc3)c2N=Nc2c(N)n[nH]c2N)n1 under target or system HL-60(TB) leukemia: growth reported as 110

* * *

- System: MALME-3M melanoma
- assay_procedure: NCI-60 one-dose screen, 48 h
- test_context: 10 µM
- Protocol: Cells are grown in 96 well plates and exposed to the test compound for 48 hours. Compounds are tested at a single concentration, which is 10^-5 M for most compounds. The reported endpoint is percent growth (GI% or GIPRCNT), where numbers from 0 - 100% represent growth inhibition, and numbers from -100% - 0 represent cell death. For example, a value of 40 represents 60% growth inhibition. A value of 0 means no net growth occurred over the course of the experiment. […]
Compounds without any hit were thinned out: in the full panel of roughly 83,000, 20% have a hit. Activity calls are given as the source filed them. How the source made its calls: active means growth percent below 10; inactive means the rest.
Answer with one of the outcomes given here: Yes (active), No (inactive)

Would you please look over these solved cases?
Prompt line: I would be grateful if you could indicate the recorded call for CC1=C2C(=O)[C@](C)(CO)C=C2C(=O)[C@](C)(O)C12CC2 .
Response line: Yes

Prompt line: I would be grateful if you could indicate the recorded call for COc1cc2c(O[C@@H]3OC[C@H](OC(C)=O)[C@H](OC(C)=O)[C@H]3O)c3c(c(-c4ccc5c(c4)OCO5)c2cc1OC)C(=O)OC3 .
Response line: No

Prompt line: I would be grateful if you could indicate the recorded call for C[C@@H]1C[C@H]2C(=O)O[C@@H](C)C(NC(=O)[C@H](Cc3cc(F)cc(F)c3)NC(=O)Nc3ccc(OS(=O)(=O)F)cc3)C(=O)N3CCC[C@H]3C(=O)N3CCO[C@H](C)[C@H]3C(=O)N[C@@H](CO)C(=O)N2C1 (some centres undefined) .
Response line: No

Prompt line: I would be grateful if you could indicate the recorded call for CC1=C[C@H]2O[C@@H]3C[C@H]4OC(=O)/C=C\C=C\[C@H]([C@@H](C)O)OCC[C@@H](C)[C@H](O)C(=O)OC[C@@]2(CC1)[C@]4(C)[C@]31CO1 .
Response line: Yes

Prompt line: I would be grateful if you could indicate the recorded call for CC1=C[C@H]2O[C@@H]3C[C@@H](O)[C@](C)([C@@]2(C)CC1)[C@@]31CO1 .
Response line: No

Prompt line: I would be grateful if you could indicate the recorded call for CC1=C2C(=C[C@@](C)(COC(=O)c3ccc(S(=O)(=O)F)cc3)[C@@H]2O)C(=O)[C@](C)(O)C12CC2 .
Response line: Yes

***
Prompt line: I would be grateful if you could indicate the recorded call for N#Cc1nc(-c2ccccc2)oc1N1CCC(S(=O)(=O)F)CC1 .
Response line: No

Prompt line: I would be grateful if you could indicate the recorded call for CC(C)=CCc1c2c(c(O)c3c1O[C@]14C(=C[C@@H]5C[C@H]1C(C)(C)O[C@@]4(C/C=C(/C)C(=O)O)C5=O)C3=O)C=CC(C)(C)O2 .
Response line: Yes

Prompt line: I would be grateful if you could indicate the recorded call for Cc1ccc(CNc2nc3ccc(OC/C(=C/F)CN)cc3o2)cn1 .
Response line: No

Prompt line: I would be grateful if you could indicate the recorded call for COC1[C@@H]2C[C@H]3C(C)(C)O[C@@](C/C=C(/C)C(=O)O)(C2=O)[C@]32Oc3c(CC=C(C)C)c4c(c(O)c3C(=O)[C@H]12)C=CC(C)(C)O4 (some centres undefined) .
Response line: Yes

Prompt line: I would be grateful if you could indicate the recorded call for C/C=C\C(=O)O[C@@H]1CC2O[C@@H]3C=C(C)C(=O)C[C@]3(C)[C@]1(C)[C@]21CO1 .
Response line: Yes

Prompt line: I would be grateful if you could indicate the recorded call for CC1=C[C@H]2O[C@@H]3C[C@H]4OC(=O)/C=C\C=C\[C@H]([C@@H](C)O)OCC/C(C)=C/C(=O)OC[C@@]2(CC1)[C@]4(C)[C@]31CO1 .
Response line: Yes

Prompt line: I would be grateful if you could indicate the recorded call for COC(=O)[C@H]1[C@@H](O)[C@@]2(O)c3c(OC)cc(OC)cc3O[C@@]2(c2ccc(OC)cc2)[C@@H]1c1ccccc1 .
Response line: Yes

Prompt line: I would be grateful if you could indicate the recorded call for CC1=C2C(=C[C@@](C)(COS(C)(=O)=O)[C@@H]2O)C(=O)[C@](C)(O)C12CC2 .
Response line: Yes

Reference source for all entries: PubChem BioAssay (NCI)
